Reference for the values: PubChem BioAssay (Tox21)

# protocolText: qHTS assay to identify small molecule agonists of the AP-1 signaling pathway - cell viability counter screen (AID 1159525); also: nearly all actives have a fitted effect of over 55% in size
# measurementSetup: ME-180 AP-1-bla cells viability, ATP luminescence, 5 h; series mostly up to 76.8 µM
Results filed as inconclusive are left out. Activity calls are given as the source filed them. Calls follow the shape of the full dose curve.
testReadout: outcome

O=C(O)c1cccc(Cl)c1	inactive
N#Cc1ccncc1	inactive
Clc1ccccc1N1CCNCC1	inactive

---

# protocolText: qHTS assay to identify small molecule agonists of the AP-1 signaling pathway - cell viability counter screen (AID 1159525); also: nearly all actives have a fitted effect of over 55% in size
# measurementSetup: ME-180 (cervical carcinoma) AP-1-bla cells viability, ATP luminescence, 5 h; series mostly up to 76.8 µM
Inconclusive results are not listed. The source made the active and inactive calls. Calls follow the shape of the full dose curve.
testReadout: outcome

Examples from the recorded data:
COc1cc2c(cc1OC)[C@@]13CCN4CC5=CCO[C@H]6CC(=O)N2[C@H]1[C@H]6[C@H]5C[C@H]43	inactive
O=C(Nc1ccccc1)N(Cc1ccc(Cl)cc1)C1CCCC1	inactive
OCCBr	inactive
COc1ccc2c(c1OC)CN1CCc3cc4c(cc3C1C2)OCO4 (stereo not drawn)	inactive
COC(=O)C(C)Oc1ccc(Oc2ccc(Cl)cc2Cl)cc1 (stereo not drawn)	inactive
CCC(C)n1c(=O)[nH]c(C)c(Br)c1=O (stereo not drawn)	inactive
C(CCOCC1CO1)COCC1CO1 (stereo not drawn)	inactive
O=C(Oc1ccc(Br)cc1)N1CCN2CCC1CC2	inactive
Cc1cc(C)c(C(=O)P(=O)(C(=O)c2c(C)cc(C)cc2C)c2ccccc2)c(C)c1	inactive
O=NN1CCCCC1	inactive

Using the record for O=C1OC(=O)C2C1C1(Cl)C(Cl)=C(Cl)C2(Cl)C1(Cl)Cl (stereo not drawn) , report its outcome.
inactive

What do we get for CCCCP(CCCC)CCCC ?
inactive

Let us now turn to COC(=O)C1=CCCN(C)C1
inactive
